molecular target: hP2X7 (Homo sapiens, UniProt Q99572); construct: expressed in transfected cells; host or cells: 1321N1 astrocytoma cells; assay: P2X7 antagonism: ligand-induced Ca2+ flux in 1321N1 astrocytoma cells overexpressing hP2X7; assay type: cell-based; details: pIC50 = -log(IC50), read-out: hP2RX7pIC50 (mean pIC50 values) (converted)
I'd be grateful if you could share measured IC50 for these entries.
Answers are plain numbers, in nM.

Before answering, review these 3 worked examples.
Enquiry: Query: IC50; subject: CCOc1ncc(C(CNC(=O)c2cccc3nc(NC4CC4)ccc23)N2CCC(F)(F)CC2)cn1 (stereo not shown) [Compound 254]
Return: 29.5

Enquiry: Now try CC(C)Oc1ncc(C(CNC(=O)c2cccc3nc(NCC4CC4)ccc23)N2CCOCC2)cn1 (stereo not shown) [Compound 227] .
Return: 33.1

Enquiry: Record: O=C(NC[C@@H](c1cnc(C(F)(F)F)nc1)N1CCC(F)(F)CC1)c1cccc2nc(NC3CC3)ccc12 [Compound 175]
Return: 44.7

---
Enquiry: Dear colleague, I am looking for the recorded IC50 of the following molecule: COc1ncc(C(CNC(=O)c2cccc3nc(NC4CC4)ccc23)N2CCC(F)(F)CC2)cn1 (stereo not shown) [Compound 192]
Return: 55

---

I'd appreciate it if you could supply log10 IC50 values for the items below.
target: hP2X7 (Homo sapiens); construct: expressed in transfected cells; host or cells: 1321N1 astrocytoma cells; assay: P2X7 antagonism: ligand-induced Ca2+ flux in 1321N1 astrocytoma cells overexpressing hP2X7; format: cell-based; details: pIC50 = -log(IC50), read-out: hP2RX7pIC50 (mean pIC50 values) (converted)
Field: value | Transform: log10 | Quantity: IC50 | Unit: nM

Examples from the recorded data:
Enquiry: Request the reported log10 IC50 associated with COc1ncc(C(CNC(=O)c2cccc3nc(N4CCN(C(C)C)CC4)ccc23)N2CCC(F)(F)CC2)cn1 (stereo not shown) [Compound 200]
Return: 1.71

Enquiry: Same for CC1(C)CCN(c2ccc3c(C(=O)NCC(c4cnc(C(F)(F)F)nc4)N4CCOCC4)cccc3n2)CC1 (stereo not shown) [Compound 273]
Return: 2.05

Enquiry: Note, next up: O=C(NCC(c1cnc(N2CCNCC2)nc1)N1CCC(F)(F)CC1)c1cccc2nc(NC3CC3)ccc12 (stereo not shown) [Compound 202]
Return: 2.06

Enquiry: Try this compound too: CC(C)Oc1ncc(C(CNC(=O)c2cccc3nc(N4CCN(C(C)C)CC4)ccc23)N2CCOCC2)cn1 (stereo not shown) [Compound 289]
Return: 1.81

// for each compound below, give its log10 IC50
1. CC(C)c1ncc(C(CNC(=O)c2cccc3nc(N4CCN(C(C)C)CC4)ccc23)N2CCC(F)(F)CC2)cn1 (stereo not shown) [Compound 299]
2. CC(C)N1CCN(c2ccc3c(C(=O)NCC(c4cnc(OCC5CC5)nc4)N4CCC(F)(F)CC4)cccc3n2)CC1 (stereo not shown) [Compound 291]
3. COc1cc(C(=O)NCC(c2ccc(C(F)(F)F)nc2)N2CCC(F)(F)CC2)nc2ccccc12 (stereo not shown) [Compound 12]

Return:
1: 2.04; 2: 1.67; 3: 3.51

---

Biological target: hP2X7 (Homo sapiens, UniProt Q99572)
Construct: expressed in transfected cells; host or cells: 1321N1 astrocytoma cells
Sequence (Q99572 1-595): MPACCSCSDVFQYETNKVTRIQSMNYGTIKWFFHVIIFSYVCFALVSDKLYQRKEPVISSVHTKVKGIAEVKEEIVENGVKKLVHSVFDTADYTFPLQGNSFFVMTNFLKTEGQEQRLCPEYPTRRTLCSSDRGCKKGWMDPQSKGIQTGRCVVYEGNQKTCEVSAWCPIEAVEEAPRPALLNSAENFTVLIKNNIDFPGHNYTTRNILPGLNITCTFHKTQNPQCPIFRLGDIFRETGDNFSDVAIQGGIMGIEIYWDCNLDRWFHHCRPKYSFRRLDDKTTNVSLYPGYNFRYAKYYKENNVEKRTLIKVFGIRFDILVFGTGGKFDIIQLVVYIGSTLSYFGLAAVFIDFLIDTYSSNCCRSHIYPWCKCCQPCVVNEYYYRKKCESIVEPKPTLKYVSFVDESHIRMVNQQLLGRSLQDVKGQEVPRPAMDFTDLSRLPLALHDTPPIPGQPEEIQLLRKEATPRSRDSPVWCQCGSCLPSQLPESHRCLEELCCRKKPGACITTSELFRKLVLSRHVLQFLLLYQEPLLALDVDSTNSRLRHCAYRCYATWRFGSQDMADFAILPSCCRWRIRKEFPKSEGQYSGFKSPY
Assay: P2X7 antagonism: ligand-induced Ca2+ flux in 1321N1 astrocytoma cells overexpressing hP2X7
Format: cell-based
Details: pIC50 = -log(IC50), read-out: hP2RX7pIC50 (mean pIC50 values) (converted)
Description: Extracellular binding of ATP to P2X7 that is expressed in the cell-membrane opens the ligand gated cation channel and allows Ca^2+ entry into the cell. This ligand-induced Ca^2+ flux was measured in 1321N1 astrocytoma cells overexpressing hP2X7 for the compounds of the present invention. […] The fluorescence, and thus the changes in intracellular [Ca^2+] in the 1321N1 cells was monitored in time before and after addition of the agonist. […]
We label by threshold. Values of IC50 strictly beneath 80 nM are 1.0. Values of 80 nM and up are 0.0.

Example cases with answers are listed next.
Enquiry: Identify whether the molecule CC(C)N1CCN(c2ccc3c(C(=O)NCC(c4cnc(N(C)C)nc4)N4CCOCC4)cccc3n2)CC1 (stereo not drawn) records IC50 below 80 nM.
Return: 0.0

Enquiry: How about CC(C)OCCCNc1ccc2c(C(=O)NCC(c3cnc(C(F)(F)F)nc3)N3CCOCC3)cccc2n1 (stereo not drawn) ?
Return: 0.0

Enquiry: Then this molecule: O=C(NCC(c1cnc(OC2CCC2)nc1)N1CCC(F)(F)CC1)c1cccc2nc(N3CCCC3)ccc12 (stereo not drawn)
Return: 1.0

Enquiry: Let us now turn to CC(C)CNc1ccc2c(C(=O)NCC(c3cnc(C(F)(F)F)nc3)N3CCOCC3)cccc2n1 (stereo not drawn)
Return: 1.0

Enquiry: Now give it for O=C(NCC(c1cnc(N2CCOCC2)nc1)N1CCC(F)(F)CC1)c1cccc2nc(N3CCOCC3)ccc12 (stereo not drawn) too.
Return: 0.0

---
Enquiry: hey, is IC50 for COC1CCN(c2ccc3c(C(=O)NCC(c4cnc(C(F)(F)F)nc4)N4CCOCC4)cccc3n2)CC1 (stereo not drawn) lower than 80 nM or not?
Return: 1.0

Enquiry: Proceed to O=C(NCC(c1cnc(N2CCOCC2)nc1)N1CCC(F)(F)CC1)c1cccc2nc(NC3CC3)ccc12 (stereo not drawn)
Return: 1.0

Enquiry: Then O=C(NCC(c1cnc(-c2ccccc2)nc1)N1CCC(F)(F)CC1)c1cccc2nc(N3CCCC3)ccc12 (stereo not drawn) ?
Return: 0.0

Enquiry: # iterate: COc1ncc(C(CNC(=O)c2cccc3nc(NCC4CC4)ccc23)N2CCC(F)(F)CC2)cn1 (stereo not drawn)
Return: 1.0

Enquiry: For CCc1ncc(C(CNC(=O)c2cccc3nc(N4CCOCC4)ccc23)N2CCC(F)(F)CC2)cn1 (stereo not drawn) then?
Return: 0.0

Enquiry: Another molecule: O=C(NCC(c1cnc(C(F)(F)F)nc1)N1CCOCC1)c1cccc2nc(N3CCN(CCO)CC3)ccc12 (stereo not drawn)
Return: 0.0

Enquiry: Can you check O=C(NCC(c1cnc(C2CCCC2)nc1)N1CCC(F)(F)CC1)c1cccc2nc(NCC3CC3)ccc12 (stereo not drawn) next?
Return: 0.0

Enquiry: Subsequent entry: O=C(NCC(c1cnc(NC2CC2)nc1)N1CCC(F)(F)CC1)c1cccc2nc(NCC3CC3)ccc12 (stereo not drawn)
Return: 1.0

Enquiry: Likewise for O=C(NCC(c1ccc(Cl)nc1)N1CCC(F)(F)CC1)c1cccc2ncccc12 (stereo not drawn) ?
Return: 1.0

Enquiry: Proceed to O=C(NCC(c1cnc(C(F)(F)F)nc1)N1CCC(F)(F)CC1)c1cccc2nc(NCC3CC3)ccc12 (stereo not drawn)
Return: 1.0

Enquiry: Would you kindly repeat that for CN(C)c1ncc(C(CNC(=O)c2cccc3nc(N4CCOCC4)ccc23)N2CCC(F)(F)CC2)cn1 (stereo not drawn) ?
Return: 1.0

Enquiry: Let us now turn to CC(C)c1ncc(C(CNC(=O)c2cccc3nc(NC4CC4)ccc23)N2CCOCC2)cn1 (stereo not drawn)
Return: 0.0

Enquiry: And the next one, O=C(NCC(c1ccccn1)N1CCC(F)(F)CC1)c1cccc2ncccc12 (stereo not drawn) ?
Return: 0.0

Enquiry: Follow-up entry: O=C(NCC(c1cnc(N2CCCC2)nc1)N1CCC(F)(F)CC1)c1cccc2nc(N3CCOCC3)ccc12 (stereo not drawn)
Return: 0.0

Enquiry: Now this one: O=C(NCC(c1cncnc1)N1CCC(F)(F)CC1)c1cccc2nc(N3CCOCC3)ccc12 (stereo not drawn)
Return: 1.0

Enquiry: Same again, this time with CN(C)c1ncc(C(CNC(=O)c2cccc3nc(N4CCCC4)ccc23)N2CCC(F)(F)CC2)cn1 (stereo not drawn)
Return: 0.0

Enquiry: Similarly, O=C(NCC(c1cnc(N2CCCC2)nc1)N1CCOCC1)c1cccc2nc(NCC3CC3)ccc12 (stereo not drawn) ?
Return: 1.0
